# Tested on: control sera (pooled serum of ten healthy LUMC hospital workers; commercial negative donor pooled serum from the Dutch bloodbank)
# Type: binding, human
# Design: unit not given here
Listed sequences paired with reported Binding of Control serum LUMC to looped peptides
Could you keep your reply to the number by itself?

These recorded examples may help you get a feel for the data.
IRQGTDYKHWPQIAQ
0.6
LKVTAFQHQNSKKTT
0.4
THITMTTVYHITVSQ
0.7

Prompt: I would be grateful if you could share the reported Binding of Control serum LUMC to looped peptides for "VLKTMSLYMAISPKF" .
Response: 0.6

Prompt: I would be grateful if you could share the reported Binding of Control serum LUMC to looped peptides for "QRSAPRITFGGPTDS" .
Response: 0.7

Prompt: I would be grateful if you could share the reported Binding of Control serum LUMC to looped peptides for "ALLLLDRLNQLESKV" .
Response: 0.8

Prompt: I would be grateful if you could share the reported Binding of Control serum LUMC to looped peptides for "VQQELYSPLFLIVAA" .
Response: 0.6

Prompt: I would be grateful if you could share the reported Binding of Control serum LUMC to looped peptides for "HNYDYCIPYNSVTDT" .
Response: 0.6

Prompt: I would be grateful if you could share the reported Binding of Control serum LUMC to looped peptides for "VKDPPNVQIHTIDGS" .
Response: 0.6
